target: human IL-1beta (human, UniProt P01584 117-269); assay: cell-based or functional assay
Listed here are binders together with their documented EC50, reduction of IL-6 expression upon IL-1beta stimulation of A549 cells.

>  <Binder>
huH34-2 (antibody, V domains shown, Humanized antibody expressed in HEK cells; also called huH34-2 bivalent; humanized version of H34) VH: QVQLVQSGAEVKKPGASVKVSCKASGYTFTGYYMHWVRQAPGQGLEWIGYISSYNAFTTYNQKFRGRATFTVDTSISTAYMELSRLRSDDTAVYYCVRSDYYGTSLYWGQGTLVTVSS VL: EIVLTQSPATLSLSPGERATLSCRASSSVSYMHWSQQKPGQAPRLLIYSTSNLASGIPARFSGSGSGTDFTLTISSLEPEDFAVYYCHQWSNYYTFGQGTKLEIK

>  <Result>
0.11 nM

$$$$
>  <Binder>
huH34-1 (antibody, V domains shown, VH = 01 and VL = 16 read by analogy with huH34-2 (VH 06, VL 16); Humanized) VH: QVQLVQSGAEVKKPGASVKVSCKASGYTFTGYYMHWVRQAPGQGLEWMGYISSYSGFTTYAQKFQGRVTMTRDTSISTAYMELSRLRSDDTAVYYCARSDYYGTSLYWGQGTLVTVSS VL: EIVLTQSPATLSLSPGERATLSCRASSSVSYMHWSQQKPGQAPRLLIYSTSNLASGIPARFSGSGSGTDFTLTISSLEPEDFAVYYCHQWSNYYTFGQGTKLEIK

>  <Result>
5.52 nM

$$$$
>  <Binder>
huH34-3 (antibody, V domains shown, VH = 11 and VL = 16 read by analogy with huH34-2) VH: QVQLVQSGAEVKKPGASVKVSCKASGYTFTGYYMHWVRQAPGQGLEWIGYISSYSAFTTYNQKFRGRATFTVDTSISTAYMELSRLRSDDTAVYYCVRSDYYGTSLYWGQGTLVTVSS VL: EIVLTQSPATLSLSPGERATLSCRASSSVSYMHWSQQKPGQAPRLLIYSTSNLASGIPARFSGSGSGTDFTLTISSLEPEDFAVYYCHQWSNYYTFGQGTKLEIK

>  <Result>
1.09 nM

$$$$

// next item, EC50, reduction of IL-6 expression upon IL-1beta stimulation of A549 cells requested
Record Canakinumab (antibody, V domains shown) VH: QVQLVESGGGVVQPGRSLRLSCAASGFTFSVYGMNWVRQAPGKGLEWVAIIWYDGDNQYYADSVKGRFTISRDNSKNTLYLQMNGLRAEDTAVYYCARDLRTGPFDYWGQGTLVTVSS VL: EIVLTQSPDFQSVTPKEKVTITCRASQSIGSSLHWYQQKPDQSPKLLIKYASQSFSGVPSRFSGSGSGTDFTLTINSLEAEDAAAYYCHQSSSLPFTFGPGTKVDIKR , field EC50, reduction of IL-6 expression upon IL-1beta stimulation of A549 cells: 0.12 nM
